The reported numbers originate from the antibiotic and cytotoxicity screens of Wong et al. (2023).

System: HepG2
Assay: cytotoxicity call (relative viability < 0.9)
Settings: 10 µM
About 3,300 (8.5%) of roughly 39,000 compounds were called active. The sample holds actives, similar compounds and a random draw of the others, so the mix is not that of the screen.
API: response.call in active, inactive

Test call for this compound, please: "CC(C)(C)OC(=O)CC[C@@]12N=C(c3ccc(OCCCO)cc3)O[C@@H]1c1ccccc1CN(Cc1ccccc1)C2=O"
active

Test call for this compound, please: "CC(C)(C)OC(=O)CC[C@]12N=C(c3ccc(OCCCO)cc3)O[C@H]1c1ccccc1CN(C(=O)c1ccccc1)C2=O"
inactive

Test call for this compound, please: "CC(C)(C)OC(=O)CC[C@@]12N=C(c3ccc(OCCCO)cc3)O[C@@H]1c1ccccc1CN(C(=O)c1ccccc1)C2=O"
active

Test call for this compound, please: "O=C1N(Cc2ccccc2)Cc2ccccc2C[C@]12N=C(c1ccc(OCCCO)cc1)O[C@@H]2c1ccccc1"
inactive

* * *

Test system: HepG2
Test: cytotoxicity call (relative viability < 0.9)
Conditions: 10 µM
Out of some 39,000 compounds screened, about 3,300 (8.5%) were called active. Many of the other results were omitted from the sample, so actives are more common in it than they were.
API: response.call in active, inactive

Test call for this molecule, please: "Cc1ccc(S(=O)(=O)Nc2ccc3c(c2)C(=O)N([C@@H](C)CO)C[C@H](C)[C@H](CN(C)C(=O)CCC(F)(F)F)OCCCC[C@@H](C)O3)cc1"
inactive

Test call for this molecule, please: "C[C@@H]1CN([C@H](C)CO)C(=O)Cc2cc(NS(=O)(=O)c3cn(C)cn3)ccc2O[C@@H]1CN(C)CC1CC1"
inactive

Test call for this molecule, please: "COc1ccc(NC(=O)Nc2ccc3c(c2)CC(=O)N([C@@H](C)CO)C[C@@H](C)[C@H](CN(C)C(=O)Nc2cccc4ccccc24)O3)cc1"
inactive

Test call for this molecule, please: "CON=C(C(=O)N[C@@H]1C(=O)N2C(C(=O)O)=C(CSc3nc(=O)c(O)nn3C)CS[C@H]12)c1csc(N)n1"
inactive

Test call for this molecule, please: "C[C@@H]1CN([C@@H](C)CO)C(=O)Cc2cc(NC(=O)Nc3ccc(C(F)(F)F)cc3)ccc2O[C@@H]1CN(C)Cc1ccc(-c2ccccc2)cc1"
active

Test call for this molecule, please: "CC(C)NC(=O)N(C)C[C@H]1Oc2ccc(NC(=O)Nc3ccc4c(c3)OCO4)cc2C(=O)N([C@@H](C)CO)C[C@@H]1C"
inactive

Test call for this molecule, please: "C[C@H](CO)N1C[C@H](C)[C@H](CN(C)S(=O)(=O)c2cn(C)cn2)Oc2cc(C#Cc3ccccc3)ccc2S1(=O)=O"
inactive

Test call for this molecule, please: "CCc1ccc(NC(=N)N=C(N)N)cc1"
inactive

Test call for this molecule, please: "O=C(C[C@@H]1CC[C@H](NS(=O)(=O)c2ccccc2)[C@@H](CO)O1)NCc1ccncn1"
inactive

Test call for this molecule, please: "O=C(C[C@H]1CC[C@@H]2[C@H](COC[C@H](O)CN2C(=O)c2cnccn2)O1)N1CCN(c2ccccc2)CC1"
inactive

Test call for this molecule, please: "C[C@H]1CN([C@@H](C)CO)C(=O)Cc2cc(N(C)C)ccc2O[C@@H]1CN(C)S(=O)(=O)c1cn(C)cn1"
inactive

Test call for this molecule, please: "COc1ccc(S(=O)(=O)N(C)C[C@@H]2OCCCC[C@@H](C)Oc3ccc(NC(=O)CCC(F)(F)F)cc3C(=O)N([C@H](C)CO)C[C@H]2C)cc1"
inactive

Test call for this molecule, please: "O=C(C[C@@H]1C[C@H]2c3cc(NC(=O)Cc4ccncc4)ccc3O[C@H]2[C@H](CO)O1)NCc1ccc2c(c1)OCO2"
inactive

Test call for this molecule, please: "C[C@@H]1CN([C@@H](C)CO)C(=O)c2cc(NS(=O)(=O)c3cn(C)cn3)ccc2O[C@@H](C)CCCCO[C@@H]1CN(C)C(=O)CCCN(C)C"
inactive

Test call for this molecule, please: "C[C@@H]1CCCCO[C@H](CN(C)CC2CCCCC2)[C@@H](C)CN([C@H](C)CO)C(=O)c2cc(NC(=O)CCC(F)(F)F)ccc2O1"
inactive

* * *

Test system: HepG2
Assay: cytotoxicity call (relative viability < 0.9)
Conditions: 10 µM
About 3,300 (8.5%) of roughly 39,000 compounds were called active. Only a selection was taken, and actives are over-represented in it overall.
API: response.call in active, inactive

Test call for this compound, please: "CC(C)CCCC(=O)N[C@@H](CCNCS(=O)(=O)O)C(=O)N[C@H](C(=O)N[C@@H](CCNCS(=O)(=O)O)C(=O)N[C@H]1CCNC(=O)[C@H]([C@@H](C)O)NC(=O)[C@H](CCNCS(=O)(=O)O)NC(=O)[C@H](CCNCS(=O)(=O)O)NC(=O)[C@H](CC(C)C)NC(=O)[C@H](CC(C)C)NC(=O)[C@H](CCNCS(=O)(=O)O)NC1=O)[C@@H](C)O"
inactive

Test call for this compound, please: "O=C(N[C@@H]1CC[C@H](CCn2cc(C3(O)CCCC3)nn2)O[C@H]1CO)C1CCOCC1"
inactive

Test call for this compound, please: "C[C@@H]1CN([C@H](C)CO)C(=O)c2cc(NS(=O)(=O)c3ccccc3)ccc2O[C@H]1CN(C)Cc1ccc(Oc2ccccc2)cc1"
inactive

Test call for this compound, please: CCC(C)C1NC(=O)C(CCNCS(=O)(=O)[O-])NC(=O)C(NC(=O)C(CCNCS(=O)(=O)[O-])NC(=O)C(NC(=O)C(CCNCS(=O)(=O)[O-])NC(=O)CCCCC(C)C)C(C)O)CCNC(=O)C(C(C)O)NC(=O)C(CCNCS(=O)(=O)[O-])NC(=O)C(CCNCS(=O)(=O)[O-])NC(=O)C(C(C)CC)NC1=O.[Na+].[Na+].[Na+].[Na+].[Na+] (centres undefined)
active

* * *

Test system: HepG2
Assay: cytotoxicity call (relative viability < 0.9)
Conditions: 10 µM
The whole screen tested about 39,000 compounds, of which about 3,300 (8.5%) were called active. Many of the other results were omitted from the sample, so actives are more common in it than they were.
API: response.call in true (1) for active, false (0) for inactive

Test call for this compound, please: "C[C@H](CO)N1C[C@H](C)[C@H](CN(C)C(=O)c2ccccn2)Oc2cc(C#Cc3ccc(F)cc3)ccc2S1(=O)=O"
false (0)

Test call for this compound, please: "COc1ccc([Si](C)(C)[C@H]2[C@H](CCn3cc([C@H](O)c4ccccc4)nn3)O[C@@]3(C(=O)N(Cc4ccc(N5C(=O)c6cccc7cccc5c67)cc4)c4ccccc43)[C@@H]2C)cc1"
false (0)

Test call for this compound, please: "COc1ccc([Si](C)(C)[C@@H]2[C@@H](CCn3cc(CCO)nn3)O[C@]3(C(=O)N(Cc4ccc(N5C(=O)c6cccc7cccc5c67)cc4)c4ccccc43)[C@H]2C)cc1"
true (1)

Test call for this compound, please: "COc1ccc([Si](C)(C)[C@@H]2[C@@H](CCn3cc([C@H](O)c4ccccc4)nn3)O[C@]3(C(=O)N(Cc4cccc(N5C(=O)c6cccc7cccc5c67)c4)c4ccccc43)[C@H]2C)cc1"
false (0)

Test call for this compound, please: "COc1ccc([Si](C)(C)[C@@H]2[C@@H](CCn3cc([C@H](O)c4ccccc4)nn3)O[C@]3(C(=O)N(Cc4ccc(N5C(=O)c6cccc7cccc5c67)cc4)c4ccccc43)[C@H]2C)cc1"
true (1)

* * *

Tested on: HepG2
Experiment: cytotoxicity call (relative viability < 0.9)
Settings: 10 µM
The whole screen tested about 39,000 compounds, of which about 3,300 (8.5%) were called active. Shown is part of a subset that was picked to be rich in actives.
API: response.call in Y = active, N = inactive

Test call for this compound, please: "C[C@@H]1CN([C@@H](C)CO)C(=O)c2cc(NS(=O)(=O)c3ccccc3)ccc2O[C@H]1CN(C)Cc1ccc(-c2ccccc2)cc1"
Y

Test call for this compound, please: "C[C@@H]1CN([C@H](C)CO)C(=O)Cc2cc(NC(=O)Cn3cnnn3)ccc2O[C@H]1CN(C)C(=O)Nc1ccc2c(c1)OCO2"
N

Test call for this compound, please: "O=C(CCCCCCC(=O)N/N=C/c1cccc(B(O)O)c1)NO"
N

Test call for this compound, please: "O=c1[nH]c2ccccc2c2ccccc12"
N

Test call for this compound, please: "COc1ccc2c3c(ccc2c1)-c1[nH]c2ccccc2c1CC3"
N

Test call for this compound, please: CCCCC(CC)CN1CN(CC(CC)CCCC)CC(C)(N)C1 (centres undefined)
Y

Test call for this compound, please: "C[C@H]1CN([C@@H](C)CO)C(=O)c2cc(NS(=O)(=O)c3ccccc3)ccc2O[C@H]1CN(C)Cc1ccc(-c2ccccc2)cc1"
N

Test call for this compound, please: "CC(=O)N1CCO[C@H]2CCN(C(=O)c3ccn(C)n3)C[C@H]21"
N

Test call for this compound, please: "CN(C)CCCNC(=O)C[C@H]1CC[C@@H]2[C@H](COc3ccc(NC(=O)c4ccc5c(c4)OCO5)cc3C(=O)N2C)O1"
N
